Recorded melting point by entry

INSERT INTO results (molecule, readout_label, measurement) VALUES
  ('COc1ccc(CN)cc1NC(C)=O', 'melting point', '115 to 117 °C'),
  ('O=C(O)CNC(=O)C1CCCC1', 'melting point', '109 to 111 °C'),
  ('OCc1cccc2cn[nH]c12', 'melting point', '201 to 203 °C');

*Q* Please indicate melting point recorded for `O=C(O)c1cccc(N2C(=O)CSC2=S)c1`
*A* 260 to 262 °C

*Q* Assign melting point to the following record: `C=CCn1c(S)nc2sccc2c1=O`
*A* 212 to 214 °C

*Q* Supply melting point value. Item: `O=C(O)c1cc(S(=O)(=O)N2CCCCC2)ccc1Cl`
*A* 214 to 216 °C

*Q* Note melting point for the molecule shown: `CC(C)Oc1cnc(C(=O)O)cn1`
*A* 109 to 111 °C

*Q* Input `CNS(=O)(=O)c1ccc(Br)c(C)c1` , output reported melting point.
*A* 77 to 79 °C

*Q* Tell us which melting point value is on record for `Nc1cnn(-c2ncccn2)c1`
*A* 169 to 171 °C

*Q* Indicate its recorded melting point; the molecule in question is `Fc1ccc(NC2CCN(c3ccncc3)CC2)cc1`
*A* 151 to 153 °C

*Q* Specify reported melting point for the molecule shown: `CCNc1nnc(C)c2ccccc12`
*A* 135 to 137 °C

*Q* Input `CS(=O)(=O)Nc1ccccc1CC(=O)O` , output reported melting point.
*A* 126 to 128 °C

====

readout.label: melting point

INSERT INTO assay_data (compound, readout_label, measurement) VALUES
  ('CS(=O)(=O)c1nnc(N)[nH]1', 'melting point', '243 to 245 °C'),
  ('NC(=O)C1CCCC(N)C1 (stereo not drawn)', 'melting point', '132 to 134 °C');

Moving on to the next compound.
*Q* Answer with the recorded melting point for the compound listed here: `COC(=O)c1c(O)cc(=O)n2c1CCCCC2`
*A* 222 to 224 °C

====

readout.label: melting point

Example entries and their recorded answers appear below.
INSERT INTO assay_data (compound, measurement) VALUES
  ('N#CC(C(=O)c1ccccc1)c1ccccc1 (stereo unspecified)', '97 to 99 °C'),
  ('Cc1cc(Cl)c(CO)c(Cl)n1', '81 to 83 °C'),
  ('CCN(CC)C(=O)c1sc2nc(CCl)[nH]c(=O)c2c1C', '174 to 176 °C'),
  ('CC(=O)c1ccc(Oc2ccc(C(=O)O)cc2)cc1', '161 to 163 °C'),
  ('COc1ccc(N)cc1OCc1cccnc1', '95 to 97 °C');

Query compound follows.
*Q* Recall and state the measured melting point for `CCOc1ccc(OC(C)(C)C(=O)O)cc1` .
*A* 66 to 68 °C

====

Each entry below carries its recorded melting point.

*Q* Identify measured melting point associated with COc1cc2c(cc1OC)C(c1ccccc1)N(C(=O)CCl)CC2 (stereo not given)
*A* 218 to 222 °C

*Q* Determine its reported melting point: `CCCCN(C(=O)CCl)c1c(N)n(CCC)c(=O)[nH]c1=O`
*A* 229 to 231 °C

*Q* Report melting point, nothing else, for this molecule: `COc1ccc(C=C(CC(=O)O)c2nc3ccccc3s2)cc1`
*A* 154 to 156 °C

*Q* Provide one value: measured melting point of `Cn1ccnc1COc1ccc(C(=O)O)cc1`
*A* 235 to 237 °C

====

Measured melting point values are reported for all entries that follow.

Worked examples, 3 compounds total:
INSERT INTO measurements (smi, readout_label, measurement) VALUES
  ('Cc1cccc(-c2nc3cc(F)ccc3[nH]2)c1O', 'melting point', '251 to 253 °C'),
  ('NCCc1ccccc1O', 'melting point', '107 to 109 °C'),
  ('CS(=O)(=O)N1CCCc2cc(C(=O)CCl)ccc21', 'melting point', '118 to 120 °C');

*Q* Fill in melting point for record `O=C(O)CSc1ccsc1[N+](=O)[O-]`
*A* 196 to 198 °C

====

# melting point per entry

Illustrative cases are given below, each with its answer.
INSERT INTO measurements (compound, readout_label, measurement) VALUES
  ('Cc1nn(C)c2ncc(N)cc12', 'melting point', '84 to 86 °C'),
  ('Cc1ccc(NS(=O)(=O)c2cccc(C(=O)O)c2)c(C)c1', 'melting point', '194 to 196 °C');

Now for the compound whose melting point we want.
*Q* Provide melting point value for the following compound: O=C(CN1CCCC(C(=O)O)C1)Nc1ccccc1 (stereo not drawn)
*A* 100 to 102 °C

====

Measured melting point, listed per entry for reference.

Solved cases (4 shown):
INSERT INTO measurements (molecule, measurement) VALUES
  ('O=C1CCS(=O)(=O)c2c(F)cccc21', '181 to 183 °C'),
  ('CN(C(=O)c1ccc(N)cc1)C1CCOCC1', '170 to 172 °C'),
  ('Nc1ccccc1-c1ccc(-c2ccccc2)cc1', '163 to 165 °C'),
  ('CC(C)(C)OC(=O)NC(C)(C)C(N)=S', '169 to 171 °C');

*Q* Give melting point for `O=C(c1ccc(Br)cc1)N1CCNCC1`
*A* 79 to 81 °C

====

Here the recorded melting point is given for each entry.

Below, each entry is followed by its recorded melting point result.
INSERT INTO results (compound, measurement) VALUES
  ('NC(=O)c1csc(N)n1', '196 to 198 °C'),
  ('CNCC(O)COc1ccc([N+](=O)[O-])cc1 (stereo not drawn)', '142 to 144 °C'),
  ('Sc1nnc(-c2ccncc2)n1-c1ccccc1', '290 to 292 °C'),
  ('CCN(CC)S(=O)(=O)c1cc(N)ccc1Cl', '95 to 99 °C'),
  ('N#Cc1ccc(S(=O)(=O)Cl)c(C(F)(F)F)c1', '70 to 72 °C'),
  ('COc1c(Cl)cc(Br)cc1S(N)(=O)=O', '214 to 216 °C'),
  ('CCCCS(=O)(=O)N1CCCCC1C(=O)O (stereo not drawn)', '78 to 80 °C'),
  ('COc1cccc(CC2(C(=O)O)CC3CCC2C3)c1 (stereo not drawn)', '67 to 69 °C'),
  ('Cc1cc(Br)cc(C=O)c1OC(F)F', '46 to 48 °C'),
  ('CS(=O)(=O)NCc1ccc(C(=O)O)o1', '139 to 141 °C');

Shift focus to the following entry.
*Q* Supply melting point value. Item: `Nc1ccc(-n2cncn2)nc1`
*A* 188 to 190 °C

====

readout.label: melting point

*Q* Quote melting point reported for `O=C(CCl)NC(=O)NC1CC1` please.
*A* 105 to 107 °C

*Q* Tell me measured melting point for `O=C(O)c1noc(-c2ccccc2)n1` please.
*A* 111 to 113 °C

*Q* Write down melting point measured for item `O=[N+]([O-])c1cccc(C(F)F)c1Br`
*A* 29 to 31 °C

*Q* Provide only the value of recorded melting point for `C#CCOc1ccc(C(=O)O)cc1`
*A* 216 to 218 °C

*Q* Tell us which melting point value is on record for `NC(=S)Cc1nnc2n1CCCCC2`
*A* 227 to 229 °C

====

readout.label: melting point

INSERT INTO assay_data (smi, measurement) VALUES
  ('CCc1ccc(C(=O)O)cc1C#N', '141 to 143 °C'),
  ('COc1ccc(NC(=O)C2(N)CCCC2)cc1OC', '116 to 118 °C'),
  ('COc1cc(CNC(=O)CCl)cc(OC)c1OC', '106 to 108 °C'),
  ('CCCS(=O)(=O)N1CCC(C(=O)O)CC1', '146 to 148 °C');

*Q* Item `COC(=O)c1ccc([N+](=O)[O-])cc1N` : provide melting point
*A* 156 to 158 °C

====

Measured melting point values are reported for all entries that follow.

// below: answered compounds
INSERT INTO measurements (compound, readout_label, measurement) VALUES
  ('CC(C)(C)OC(=O)c1cccc(C=O)c1', 'melting point', '31 to 33 °C'),
  ('O=C(O)c1c(Cl)cccc1Oc1ccc(Cl)cc1', 'melting point', '109 to 111 °C'),
  ('O=C(CCl)Nc1nc2ccc(F)cc2s1', 'melting point', '170 to 172 °C'),
  ('Nc1ccc(S(N)(=O)=O)cn1', 'melting point', '171 to 173 °C'),
  ('NC(=O)[C@H]1CCCC[C@H]1C(=O)O', 'melting point', '169 to 171 °C');

*Q* Please list melting point recorded for the compound `O=[N+]([O-])c1ccc(O)c(Br)c1`
*A* 111 to 113 °C

*Q* Note down melting point recorded for `Nc1cc(C(=O)O)ccc1N1CCSCC1`
*A* 252 to 254 °C

*Q* Answer with reported melting point of `ClCc1cc2c(cc1Br)OCO2`
*A* 62 to 66 °C
